test system: CCRF-CEM leukemia; experiment: NCI-60 one-dose screen, 48 h (100 = growth as untreated, 0 = no growth, -100 = all killed); details: 10 µM unless noted
The panel holds about 83,000 compounds, 20% with a hit somewhere; the sample as a whole holds those more often. Activity calls are given as the source filed them. How the source made its calls: active means growth percent below 10; inactive means the rest.
value-type: growth

# smiles-str, result
records = [
    ("CCCCCc1ccc(S(=O)(=O)Nc2cccc(-c3csc(NCCN4CCN(C)CC4)n3)c2)cc1", "16.2% (inactive)"),
    ("Cc1nc(-c2ccccc2O)ccc1C(=O)N=Nc1c(O)[nH]c2ccc(Br)cc12", "86.1% (inactive)"),
    ("CN(C)CCNC(=O)c1ccc(-c2nc3ccc4[nH]ncc4c3c3c2CCC3)cc1", "3.51% (active)"),
    ("Cc1cc(-c2ccc(Cl)cc2)n(Cc2nnc(SCC(=O)Nc3ccc(S(N)(=O)=O)cc3)n2C2CCCCC2)n1", "114% (inactive)"),
    ("CC(C)(C)c1ccc(-c2nnc(-c3nc4ccccc4nc3Cl)o2)cc1", "103% (inactive)"),
]

====

test system: NCI-H522 lung; test: NCI-60 one-dose screen, 48 h (100 = growth as untreated, 0 = no growth, -100 = all killed); conditions: 10 µM unless noted
This is part of a sample that, as a whole, favours compounds with a hit. Of some 83,000 tested, about 20% had one in any assay.
value-type: growth (%)

# molecule, value-type, numeric-result
measured = [
    ("O=C(CN1CCN(c2cc(=O)n(-c3ccccc3)c3ccccc23)CC1)Nc1nc(-c2ccc(Cl)cc2)cs1", "growth", 56.3),
    ("COc1ccc(Cn2cc3c(c2-c2cc(OC)c(OC)c(OC)c2)CCc2c(CN4CCOCC4)noc2-3)cc1", "growth", 12.3),
    ("COc1cc2oc(-c3cccc(NC(=O)c4cc(N)ccc4Cl)c3)cc(=O)c2c(OC)c1OC", "growth", 101),
    ("COC(=O)C[Se]C(=O)Cc1c(C)n(C(=O)c2ccc(Cl)cc2)c2ccc(OC)cc12", "growth", 44.8),
    ("O=C(Nc1ccc(F)c(F)c1)c1cc(-c2ccc(F)cc2F)ccc1O", "growth", -1.71),
    ("C=CCn1c(SCC(=O)Nc2ccc(C(=O)/C=C/c3ccc(C)cc3)cc2)nnc1-c1c[nH]c2ccccc12", "growth", 81.3),
    ("COc1cc2nc(Cl)nc(Nc3cccc(C4=Nc5c(N)nc(N)nc5NC(c5ccc(F)cc5)C4)c3)c2cc1OC (centres undefined)", "growth", 50),
    ("NS(=O)(=O)c1ccc(Nc2nc(SCC(=O)c3ccc(Cl)cc3)nc3c2CCCC3)cc1", "growth", 67.7),
    ("NC(N)=Nc1ccc(Oc2cccc(NC(N)=Nc3ccc(Cl)c(C(F)(F)F)c3)c2)cc1", "growth", 39.6),
    ("O=C(CSc1nc2ccccc2c(=O)n1-c1ccc(Cl)cc1)N/N=C/c1ccc(N2CCCCC2)cc1", "growth", 88.1),
    ("CCNC(=O)N1CCc2cc(OC)c(OCCc3ccc(OC)c(N)c3)cc2C1c1cc(C)c(C)cc1C (centres undefined)", "growth", 5.26),
    ("COc1ccc(/C=C/C(=O)c2cccc(NC(=O)CSc3nc4ccccc4c(=O)n3-c3ccccc3)c2)cc1OC", "growth", 96.9),
    ("CC1=NC2=NN3C(=NN2C(c2ccccc2)=C1)N=NC(c1ccc(Br)cc1)=C3c1ccc(Br)cc1", "growth", 98.5),
    ("O=C(NNc1nc2cc(F)c(F)cc2n2c(CN3CC4CNCC4C3)ccc12)c1ncccn1 (centres undefined)", "growth", 0.166),
    ("Cc1ccc2c(c1)Oc1nc(N)c(C#N)c(N)c1C2Sc1ccc(F)cc1 (centres undefined)", "growth", -58.1),
    ("O=C1/C(=C/C=C/c2ccco2)SC(=S)N1c1ccccc1", "growth", 58),
    ("NC(N)=Nc1ccc(Oc2cccc(Nc3ccc(Cl)c(C(F)(F)F)c3)c2)cc1", "growth", 49),
    ("COc1cc(OC)c(S(N)(=O)=O)cc1C(C)=O", "growth", 103),
    ("COc1cc(/C=C/C(=O)c2ccc(NC(=O)CSc3nnc(-c4ccc(-c5nc6ccc(Cl)cc6[nH]5)cc4)o3)cc2)cc(OC)c1OC", "growth", 76.1),
]
